// data source = patent US9376425B2

molecular target: human MDM2 (GST-hMDM2 1-188), interaction with biotinylated-p53 (1-83) (Homo sapiens); construct: Amino acid residues 1-188 of human MDM2 were expressed; assay: improved HTRF assay (HTRF2 assay), inhibition of HDM2-p53 interaction; settings: 0.2 nM GST-hMDM2, 0.5 nM biotinylated-p53, 100 mM KF
Sequence (Q00987 1-188): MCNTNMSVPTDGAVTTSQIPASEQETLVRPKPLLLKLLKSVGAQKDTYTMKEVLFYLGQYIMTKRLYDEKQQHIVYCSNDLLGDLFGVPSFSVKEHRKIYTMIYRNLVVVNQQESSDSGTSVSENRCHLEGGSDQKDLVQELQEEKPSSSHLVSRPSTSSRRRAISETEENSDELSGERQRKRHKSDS
property.label: pIC50
# reply with the number alone; pIC50 is -log10 of concentration in mol/L

Ask | // pIC50 lookup, key: C[C@@H](CS(=O)(=O)C(C)(C)C)N1C(=O)[C@@H](CC(=O)NS(C)(=O)=O)O[C@H](c2cccc(Cl)c2)[C@H]1c1ccc(Cl)cc1 (single isomer, unassigned) [Example 238]
Reply | 9.00

Ask | // pIC50 lookup, key: CC[C@@H](CN(c1ccccc1Cl)S(=O)(=O)C1CC1)N1C(=O)[C@@H](CC(=O)O)O[C@H](c2cccc(Cl)c2)[C@H]1c1ccc(Cl)cc1 (single isomer, unassigned) [Example 264]
Reply | 7.72

Ask | // pIC50 lookup, key: CC[C@@H](CN(c1ccccc1F)S(=O)(=O)C1CC1)N1C(=O)[C@@H](CCC(=O)O)O[C@H](c2cccc(Cl)c2)[C@H]1c1ccc(Cl)cc1 (single isomer, unassigned) [Example 263]
Reply | 8.70
